Origin of measurements: patent US6723754B2

We begin with a simple list: items and their reported Inhibition of writhing (%).
System: acetic acid induced writhing in mice
Protocol Description: Acetic acid-induced writhing in mice
Assay type: in vivo
Condition Set: mouse, 100 mg/kg p.o.
Marks after values point to notes of the source that are not given here.

Field: example entries. Status: answers known.
> print(dat)
                                   molecule           recorded.endpoint  test.result
1  CCN(CC)C(=O)/C(C#N)=C/c1cc(O)c(O)c([N+](=O)[O-])c1  Inhibition of writhing (%)          24%
2  CC(=O)c1cc(O)c(O)c([N+](=O)[O-])c1 [3′,4′-dihydroxy-5′-nitroacetophenone]  Inhibition of writhing (%)       43** %
3  O=[N+]([O-])c1cc(O)c(O)c([N+](=O)[O-])c1  Inhibition of writhing (%)       22** %

Attention now shifts to the item below.
Name the recorded Inhibition of writhing (%) for CC(=O)C(=Cc1cc(O)c(O)c([N+](=O)[O-])c1)C(C)=O .
21** %
